Value source: a melting point compilation (Tetko et al.; mined from patent text by program, amines drawn as free bases though some values may be those of a salt)

Items are presented alongside their recorded melting point.

Some solved entries appear below for comparison.
In [3]: df
Out[3]:
                                   compound         result
0  CCOC(=O)N1CCC(C#N)(NC(=O)C(CC2CCCCC2)NC(=O)N2CCOCC2)CC1 (stereo unspecified)  140 to 143 °C
1            CCCSc1ncc(C(=O)O)n1Cc1ccccc1Cl  158 to 160 °C
2  COc1ccccc1C1(CC(=O)O)C(=O)Nc2cc(Cl)c(Cl)cc21 (stereo unspecified)  222 to 224 °C
3              COc1ccc(-c2nc(C)cc(Cl)n2)cc1    80 to 81 °C
4  O=C1NC(=O)C(Cc2ccc(OCCN3c4ccccc4Sc4ccc(C(F)(F)F)cc43)cc2)S1 (stereo unspecified)          64 °C
5  COc1cc2c(c(Cl)c1Cl)SC(C(C)C)C2O (stereo unspecified)  119 to 123 °C
6                       CC(=O)SCCC(=O)N(C)C  118 to 121 °C
7  CC(C)=CCN1Cc2cc(Cl)cc3[nH]c(=S)n(c23)C[C@@H]1C         186 °C

Q: Could you share which melting point value was measured for COc1ccc(OC)c2c1C(=O)C=C(SCCO)C2=O ?
Result: 117 to 118 °C

Q: Could you share which melting point value was measured for O=C1C(Cl)=C(c2ccccc2)C(=O)N1c1cccc(Cl)c1 ?
Result: 67 to 68 °C

Q: Could you share which melting point value was measured for O=C(O)CCC1CCCC2CC(=O)NC12 (stereo unspecified) ?
Result: 180 to 181 °C

Q: Could you share which melting point value was measured for CCCCC12CCC3=C(CCc4cc(OC)ccc43)C1=CCC2=O (stereo unspecified) ?
Result: 53 to 55 °C

###

READOUT KIND: melting point

Some solved entries appear below for comparison.
                                   compound   readout_kind         result
0  CCOC(=O)c1nc(C2CCCCC2)n(-c2cccc(Cl)c2F)c1Br  melting point  150 to 152 °C
1     CCOC(=O)c1ccc(-c2nc3ccc(C)cn3c2CO)cc1  melting point  157 to 159 °C

Q: Could you share which melting point value was measured for COc1cc2nc(Cl)nc(-c3cccc([N+](=O)[O-])c3)c2cc1OC ?
Result: 228 to 230 °C

Q: Could you share which melting point value was measured for NNC(=S)NCc1ccc([N+](=O)[O-])cc1 ?
Result: 196 to 198 °C

Q: Could you share which melting point value was measured for CCC(=NO)C1=CCCN(Cc2ccccc2)C1 ?
Result: 111 to 112 °C

Q: Could you share which melting point value was measured for CN1C(=O)C(NC(=O)NC2CCCCC2)N=C(c2ccccc2)c2ccccc21 (stereo unspecified) ?
Result: 287 to 288 °C

###

READOUT KIND: melting point

Some solved entries appear below for comparison.
>>> print(df.to_string())
                                   molecule   readout_kind         result
0         O=C(NS(=O)(=O)C=Cc1ccccc1)N1CCCC1  melting point  201 to 204 °C
1       COCCOc1ccc2sc(C(=O)Nc3ccccc3N)cc2c1  melting point  162 to 165 °C
2  CCOc1cc2c(C)c(CCOS(C)(=O)=O)c(=O)oc2cc1OC  melting point  153 to 154 °C
3  Nc1nc(Cc2ccc(OCc3ccccc3)cc2)nc2nc(-c3ccco3)nn12  melting point  220 to 222 °C

Let us examine a further case.
Q: Could you share which melting point value was measured for CC(C)(Cc1ccc(Cl)cc1)C(O)(COc1ccc(Cl)cc1)c1cccnc1 (stereo not given) ?
Result: 46 to 47 °C
